- setup-conditions: Ebola virus entry assay, blue channel fluorescence
Activity calls are given as the source filed them. No rule for the calls is given here.
Outcomes: t (active), f (inactive)

compound	discrete-label
CCC1(C2=NCCN2)Cc2ccccc2O1 (stereo not given)	f
Cc1ccc2c(c1)C1CN(C)CCC1N2 (stereo not given)	t
COc1cc2nc(N3CCN(C(=O)C4COc5ccccc5O4)CC3)nc(N)c2cc1OC (stereo not given)	t
C=C1C[C@@H]2[C@H](CC[C@]3(C)C(=O)CC[C@@H]23)[C@@]2(C)C=CC(=O)C=C12	t
CCC1=C[C@@H]2CN(C1)Cc1c([nH]c3ccccc13)[C@@](C(=O)OC)(c1cc3c(cc1OC)N(C)[C@H]1[C@@](O)(C(=O)OC)[C@H](OC(C)=O)[C@]4(CC)C=CCN5CC[C@]31[C@@H]54)C2	t
COc1cc(C(=O)NCc2ccc(OCCN(C)C)cc2)cc(OC)c1OC	f
Cc1cc(OCCOCC[N+](C)(C)Cc2ccccc2)ccc1C(C)(C)CC(C)(C)C	t
CCN(CC)CCN1C(=O)CN=C(c2ccccc2F)c2cc(Cl)ccc21	t
CC(=O)N[C@@H](CS)C(=O)O	f
OCCN1CCN(CCCN2c3ccccc3Sc3ccc(Cl)cc32)CC1	t
